Target: T1, recombinant mouse soluble gpNMB (recombinant mouse gpNMB-FLAG-His) (mouse, UniProt Q99P91 23-502)
T1 sequence: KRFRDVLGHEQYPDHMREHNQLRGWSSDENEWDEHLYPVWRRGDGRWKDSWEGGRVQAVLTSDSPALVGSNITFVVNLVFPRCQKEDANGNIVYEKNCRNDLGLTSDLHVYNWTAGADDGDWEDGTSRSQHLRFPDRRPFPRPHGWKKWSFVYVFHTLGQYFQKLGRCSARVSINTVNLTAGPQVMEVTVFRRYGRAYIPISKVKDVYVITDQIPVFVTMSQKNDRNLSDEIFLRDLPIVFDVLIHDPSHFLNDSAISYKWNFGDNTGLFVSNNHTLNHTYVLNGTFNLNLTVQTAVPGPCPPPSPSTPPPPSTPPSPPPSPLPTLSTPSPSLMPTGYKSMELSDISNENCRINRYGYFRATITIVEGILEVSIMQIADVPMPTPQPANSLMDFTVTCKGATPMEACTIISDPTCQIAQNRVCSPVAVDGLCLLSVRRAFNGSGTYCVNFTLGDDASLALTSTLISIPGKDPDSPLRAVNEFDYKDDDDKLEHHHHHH
Experiment: SPR single-cycle kinetics, antibody over captured gpNMB-FLAG-His, 36C, mean of 2
metric: koff

[[record]]
binder = "hGPN18-5_H1L1 (antibody, V domains shown, humanized; also called hGPN18-5_VH1+VL1) VH: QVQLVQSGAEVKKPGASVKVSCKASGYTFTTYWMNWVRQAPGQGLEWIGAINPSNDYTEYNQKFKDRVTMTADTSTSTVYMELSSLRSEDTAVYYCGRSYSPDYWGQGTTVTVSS VL: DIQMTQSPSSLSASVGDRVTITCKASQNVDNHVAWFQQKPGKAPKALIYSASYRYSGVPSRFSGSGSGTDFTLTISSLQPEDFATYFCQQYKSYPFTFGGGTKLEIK"
metric = "koff"
reported_result = "0.00143 s⁻¹"

